Reference source: the array DNA melting data of Ke et al. (doi:10.1101/2024.01.08.574731)

Assay: folding enthalpy; higher = less favourable; fluorescence melt of hairpins on a sequencing array, two-state fit
Conditions: sodium 0.088 M

[
  {
    "sequenceCode": "GCTGCGCGAAAGCCCGGC ((.(.((....)).).))",
    "quantityUnit": "kcal/mol",
    "folding enthalpy": -17.5
  },
  {
    "sequenceCode": "GATCAACATATTGATC ((((((....))))))",
    "quantityUnit": "kcal/mol",
    "folding enthalpy": -30.2
  },
  {
    "sequenceCode": "GTCGTGTCGAAAGACGAC (((..(((....))))))",
    "quantityUnit": "kcal/mol",
    "folding enthalpy": -19.9
  },
  {
    "sequenceCode": "CGATCGGAAACGAATCG ((((((....))).)))",
    "quantityUnit": "kcal/mol",
    "folding enthalpy": -34.7
  },
  {
    "sequenceCode": "GATCTCAATAGAGATC ((((((....))))))",
    "quantityUnit": "kcal/mol",
    "folding enthalpy": -38.5
  },
  {
    "sequenceCode": "GAAAGGCGAAAGCCGTTC (((.(((....))).)))",
    "quantityUnit": "kcal/mol",
    "folding enthalpy": -11.9
  },
  {
    "sequenceCode": "GACCGCGAAAGCGAGTC ((((((....))).)))",
    "quantityUnit": "kcal/mol",
    "folding enthalpy": -20
  },
  {
    "sequenceCode": "GATCAAGATGTTGATC ((((((....))))))",
    "quantityUnit": "kcal/mol",
    "folding enthalpy": -28
  },
  {
    "sequenceCode": "GATCATTACATGATC ((((((...))))))",
    "quantityUnit": "kcal/mol",
    "folding enthalpy": -33.8
  },
  {
    "sequenceCode": "GGTTCCGAAAGGACGACC ((((((....)))..)))",
    "quantityUnit": "kcal/mol",
    "folding enthalpy": -15.8
  },
  {
    "sequenceCode": "GCCATAACGAAAGTTGGC (((..(((....))))))",
    "quantityUnit": "kcal/mol",
    "folding enthalpy": -30.9
  },
  {
    "sequenceCode": "GTATCACGAAAGTGTAC (((.(((....))))))",
    "quantityUnit": "kcal/mol",
    "folding enthalpy": -18.1
  },
  {
    "sequenceCode": "GTAGAAGCGAAAGCTTAC (((..(((....))))))",
    "quantityUnit": "kcal/mol",
    "folding enthalpy": -11.6
  },
  {
    "sequenceCode": "GGATGCGAAAGCAGTCC ((((((....))).)))",
    "quantityUnit": "kcal/mol",
    "folding enthalpy": -22.3
  },
  {
    "sequenceCode": "CGAGCGGAAACGCCGTCG ((((((....)))..)))",
    "quantityUnit": "kcal/mol",
    "folding enthalpy": -15.5
  },
  {
    "sequenceCode": "GGGGAGGGAAACCCCCCC ((((.((....)).))))",
    "quantityUnit": "kcal/mol",
    "folding enthalpy": -34.1
  },
  {
    "sequenceCode": "CGTGGCGGAAACGCGACG (((.(((....))).)))",
    "quantityUnit": "kcal/mol",
    "folding enthalpy": -35.6
  },
  {
    "sequenceCode": "GCCACGCGAAAGCAGGGC (((..((....))..)))",
    "quantityUnit": "kcal/mol",
    "folding enthalpy": -23.5
  },
  {
    "sequenceCode": "GCGACGCGAAAGCGAGGC ((..(((....)))..))",
    "quantityUnit": "kcal/mol",
    "folding enthalpy": -12.8
  },
  {
    "sequenceCode": "GGCTTGGGAAACTAGGCC (((.(.(....).).)))",
    "quantityUnit": "kcal/mol",
    "folding enthalpy": -28.4
  },
  {
    "sequenceCode": "GGAGCTCGAAAGAGGTCC (((.(((....))).)))",
    "quantityUnit": "kcal/mol",
    "folding enthalpy": -37.8
  },
  {
    "sequenceCode": "GGTCAGGGAAACTTGACC (((((.(....).)))))",
    "quantityUnit": "kcal/mol",
    "folding enthalpy": -37.9
  },
  {
    "sequenceCode": "GAGTAGGGAAACTTACTC (((((.(....).)))))",
    "quantityUnit": "kcal/mol",
    "folding enthalpy": -25.6
  },
  {
    "sequenceCode": "GAGCGCCGAAAGGCTCTC (((.(((....))).)))",
    "quantityUnit": "kcal/mol",
    "folding enthalpy": -21.4
  },
  {
    "sequenceCode": "GGTCATGGAAACATGATC (.(((((....))))).)",
    "quantityUnit": "kcal/mol",
    "folding enthalpy": -31.5
  },
  {
    "sequenceCode": "GCATCCGGAAACGGGTGC (((.(((....))).)))",
    "quantityUnit": "kcal/mol",
    "folding enthalpy": -39.5
  },
  {
    "sequenceCode": "CGGGATCGGAAACGACCG (((..(((....))))))",
    "quantityUnit": "kcal/mol",
    "folding enthalpy": -22.6
  },
  {
    "sequenceCode": "GTCCCGCGAAAGCGCGAC (((.(((....))).)))",
    "quantityUnit": "kcal/mol",
    "folding enthalpy": -21.4
  },
  {
    "sequenceCode": "GCCCTCGAAAGAGCGGC ((((((....))).)))",
    "quantityUnit": "kcal/mol",
    "folding enthalpy": -37.3
  },
  {
    "sequenceCode": "GATCCCTTGGGGATC ((((((...))))))",
    "quantityUnit": "kcal/mol",
    "folding enthalpy": -33
  },
  {
    "sequenceCode": "GACAAAGAAATTTGTC ((((((....))))))",
    "quantityUnit": "kcal/mol",
    "folding enthalpy": -27.6
  },
  {
    "sequenceCode": "GTGGTAGGAAACTGCCAC ((((.((....)).))))",
    "quantityUnit": "kcal/mol",
    "folding enthalpy": -50
  },
  {
    "sequenceCode": "GCCATGCGAAAGCGGGGC (((..((....))..)))",
    "quantityUnit": "kcal/mol",
    "folding enthalpy": -35
  },
  {
    "sequenceCode": "GGACTCGGAAACGGGTCC ((((.((....)).))))",
    "quantityUnit": "kcal/mol",
    "folding enthalpy": -36.4
  },
  {
    "sequenceCode": "GCCCTATCGAAAGATGGC (((..(((....))))))",
    "quantityUnit": "kcal/mol",
    "folding enthalpy": -23.5
  },
  {
    "sequenceCode": "GTCTATCGAAAGATGAC (((.(((....))))))",
    "quantityUnit": "kcal/mol",
    "folding enthalpy": -27.1
  },
  {
    "sequenceCode": "GATCGGCTGGCCGATC ((((((....))))))",
    "quantityUnit": "kcal/mol",
    "folding enthalpy": -38.2
  },
  {
    "sequenceCode": "GCAAACTCGAAAGAGTGC (((..(((....))))))",
    "quantityUnit": "kcal/mol",
    "folding enthalpy": -18
  },
  {
    "sequenceCode": "GTCTCAGAAATGAGAC ((((((....))))))",
    "quantityUnit": "kcal/mol",
    "folding enthalpy": -41.8
  },
  {
    "sequenceCode": "GATTGGAAACAATC (((((....)))))",
    "quantityUnit": "kcal/mol",
    "folding enthalpy": -23.6
  },
  {
    "sequenceCode": "CGCACGGAAACGTGGGCG ((((((....)))..)))",
    "quantityUnit": "kcal/mol",
    "folding enthalpy": -12.8
  },
  {
    "sequenceCode": "GAAAGACGAAAGTCTTC (((.(((....))))))",
    "quantityUnit": "kcal/mol",
    "folding enthalpy": -12.6
  }
]
